Attribute: pIC50
Target: Vascular endothelial growth factor receptor 2 (Homo sapiens, UniProt P35968)
Sequence (P35968 whole entry): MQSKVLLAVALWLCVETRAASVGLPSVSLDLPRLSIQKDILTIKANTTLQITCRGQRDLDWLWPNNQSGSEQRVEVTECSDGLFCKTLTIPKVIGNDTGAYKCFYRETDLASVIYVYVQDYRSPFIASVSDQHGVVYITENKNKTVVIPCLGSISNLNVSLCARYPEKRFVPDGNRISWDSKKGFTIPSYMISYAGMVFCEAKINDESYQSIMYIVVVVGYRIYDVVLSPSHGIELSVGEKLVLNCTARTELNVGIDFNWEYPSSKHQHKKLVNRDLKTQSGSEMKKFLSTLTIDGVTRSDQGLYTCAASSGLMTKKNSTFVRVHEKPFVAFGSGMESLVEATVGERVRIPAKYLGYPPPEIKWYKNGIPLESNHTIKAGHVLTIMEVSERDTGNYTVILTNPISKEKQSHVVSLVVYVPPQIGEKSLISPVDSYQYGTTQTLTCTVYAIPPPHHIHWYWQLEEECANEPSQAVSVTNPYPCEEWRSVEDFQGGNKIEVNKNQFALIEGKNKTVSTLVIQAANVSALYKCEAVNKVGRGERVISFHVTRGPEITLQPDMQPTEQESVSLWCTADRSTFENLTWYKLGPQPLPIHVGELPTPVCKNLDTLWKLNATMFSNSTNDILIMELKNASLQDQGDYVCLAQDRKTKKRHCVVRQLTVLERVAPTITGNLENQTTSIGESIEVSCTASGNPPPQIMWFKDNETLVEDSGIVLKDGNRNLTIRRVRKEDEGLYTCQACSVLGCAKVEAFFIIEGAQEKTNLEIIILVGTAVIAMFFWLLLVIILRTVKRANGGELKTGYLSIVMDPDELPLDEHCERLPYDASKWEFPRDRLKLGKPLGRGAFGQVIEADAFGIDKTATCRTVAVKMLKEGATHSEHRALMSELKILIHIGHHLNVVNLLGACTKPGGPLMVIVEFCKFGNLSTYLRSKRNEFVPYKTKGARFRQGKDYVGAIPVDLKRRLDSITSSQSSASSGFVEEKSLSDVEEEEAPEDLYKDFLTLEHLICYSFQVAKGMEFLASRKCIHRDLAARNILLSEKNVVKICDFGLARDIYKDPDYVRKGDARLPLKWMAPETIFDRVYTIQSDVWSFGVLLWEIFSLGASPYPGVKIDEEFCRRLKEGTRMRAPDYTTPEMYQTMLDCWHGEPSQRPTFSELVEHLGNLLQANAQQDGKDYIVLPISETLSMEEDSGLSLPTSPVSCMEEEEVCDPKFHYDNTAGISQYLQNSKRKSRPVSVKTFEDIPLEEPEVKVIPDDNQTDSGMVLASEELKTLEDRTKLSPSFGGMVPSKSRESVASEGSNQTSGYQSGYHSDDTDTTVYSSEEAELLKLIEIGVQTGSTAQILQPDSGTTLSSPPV
Assay: Inhibition of VEGFR-2 (unknown origin) using FAM-labeled peptide as substrate incubated for 10 mins in presence of ATP by caliper mobility shift assay
Conceptually, pIC50 converts a concentration in mol/L into minus its log10.

# value of pIC50, Vascular endothelial growth factor receptor 2 (Homo sapiens, UniProt P35968), item COc1cc2ncnc(Sc3cccc(NC(=S)Nc4ccc(Br)c(C(F)(F)F)c4)c3)c2cc1OC = 7.10

More entries:
# value of pIC50, Vascular endothelial growth factor receptor 2 (Homo sapiens, UniProt P35968), item COc1cc2ncnc(Oc3cccc(NC(=S)Nc4ccc(Cl)c(C(F)(F)F)c4)c3)c2cc1OC = 7.30
